meta.source: patent US20240082223A1

biological target: ROCK2 (Homo sapiens, UniProt O75116); assay: In vitro inhibitory activity assay ROCK2 (Method B, ADP-Glo, 200 μM ATP); type: biochemical; conditions: ATP 200 μM, read-out: Method B ROCK 2 (Ki)
Sequence (O75116 whole entry): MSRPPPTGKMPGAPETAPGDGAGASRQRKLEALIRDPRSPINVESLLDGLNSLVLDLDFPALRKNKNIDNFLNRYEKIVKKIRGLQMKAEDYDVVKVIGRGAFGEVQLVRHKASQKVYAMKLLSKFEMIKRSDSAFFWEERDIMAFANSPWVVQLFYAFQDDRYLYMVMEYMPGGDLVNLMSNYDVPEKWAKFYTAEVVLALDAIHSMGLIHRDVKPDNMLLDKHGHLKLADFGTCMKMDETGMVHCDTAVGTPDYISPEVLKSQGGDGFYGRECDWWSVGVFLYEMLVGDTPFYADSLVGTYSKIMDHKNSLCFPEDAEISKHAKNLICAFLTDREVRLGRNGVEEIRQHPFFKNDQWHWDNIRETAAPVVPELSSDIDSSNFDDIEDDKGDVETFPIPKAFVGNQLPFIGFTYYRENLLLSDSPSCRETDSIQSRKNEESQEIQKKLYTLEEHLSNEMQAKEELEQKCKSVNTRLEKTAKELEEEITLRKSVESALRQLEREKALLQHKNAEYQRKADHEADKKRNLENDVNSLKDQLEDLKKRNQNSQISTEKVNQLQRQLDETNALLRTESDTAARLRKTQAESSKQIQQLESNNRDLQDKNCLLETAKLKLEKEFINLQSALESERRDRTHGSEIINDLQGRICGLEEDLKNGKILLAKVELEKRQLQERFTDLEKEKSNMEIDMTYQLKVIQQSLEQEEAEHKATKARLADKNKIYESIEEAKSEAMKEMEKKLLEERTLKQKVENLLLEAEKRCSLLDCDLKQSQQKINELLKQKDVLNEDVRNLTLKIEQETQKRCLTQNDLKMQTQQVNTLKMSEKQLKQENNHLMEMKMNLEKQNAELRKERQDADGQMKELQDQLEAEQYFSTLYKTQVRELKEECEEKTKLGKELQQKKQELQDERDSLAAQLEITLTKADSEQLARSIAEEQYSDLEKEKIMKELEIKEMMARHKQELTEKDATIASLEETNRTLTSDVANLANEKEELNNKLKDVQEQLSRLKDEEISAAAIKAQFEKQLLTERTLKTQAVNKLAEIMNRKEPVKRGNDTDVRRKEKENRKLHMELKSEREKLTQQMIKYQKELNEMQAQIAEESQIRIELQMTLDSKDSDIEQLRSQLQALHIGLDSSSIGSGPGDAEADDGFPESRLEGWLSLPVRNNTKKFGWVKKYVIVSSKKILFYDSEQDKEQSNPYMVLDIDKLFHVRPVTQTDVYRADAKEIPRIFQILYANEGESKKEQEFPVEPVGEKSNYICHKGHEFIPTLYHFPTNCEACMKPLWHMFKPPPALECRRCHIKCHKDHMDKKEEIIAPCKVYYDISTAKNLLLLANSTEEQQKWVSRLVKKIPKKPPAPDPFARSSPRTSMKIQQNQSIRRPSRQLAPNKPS
Consider the following compounds and their measured Ki readings.

compound="O=C(Nc1cccc(CNc2ncc(-c3cn[nH]c3)c3c2CCO3)c1)c1ccc2c(cnn2CCN2CCOCC2)c1 [Example 46]" observation_type=Ki result="≤ 3 nM"
compound="CN1CCc2cc(C(=O)Nc3cccc(CNc4ncc(-c5cn[nH]c5)c5c4CCO5)c3)ccc2C1 [Example 45]" observation_type=Ki result="≤ 3 nM"
compound="O=C(NCC1CCCCO1)c1cccc(CNc2ncc(-c3cn[nH]c3)c3c2CCO3)c1 (single isomer, unassigned; enantiomer 2) [Example 56]" observation_type=Ki result="≤ 3 nM"
compound="O=C(NCc1ccon1)c1cccc(CNc2ncc(-c3cn[nH]c3)c3c2CCO3)c1 [Example 13]" observation_type=Ki result="≤ 3 nM"
compound="COCCNC(=O)c1cccc(CNc2ncc(-c3cn[nH]c3)c3c2CCO3)c1 [Example 7]" observation_type=Ki result="≤ 3 nM"
compound="CC1(C)CC(NC(=O)c2cccc(CNc3ncc(-c4cn[nH]c4)c4c3CCO4)c2)CO1 (stereo not shown) [Example 6]" observation_type=Ki result="3 to 30 nM"
compound="CN(C)CCOc1ccc(NC(=O)c2cccc(CNc3ncc(-c4cn[nH]c4)c4c3CCO4)c2)nc1 [Example 57]" observation_type=Ki result="≤ 3 nM"
compound="O=C(NCc1cnon1)c1cccc(CNc2ncc(-c3cn[nH]c3)c3c2CCO3)c1 [Example 10]" observation_type=Ki result="≤ 3 nM"
compound="O=C(Nc1nc2c(s1)CC(NC1COC1)CC2)c1cccc(CNc2ncc(-c3cn[nH]c3)c3c2CCO3)c1 (stereo not shown) [Example 34]" observation_type=Ki result="≤ 3 nM"
compound="CN1CCn2nc(NC(=O)c3cccc(CNc4ncc(-c5cn[nH]c5)c5c4CCO5)c3)cc2C1 [Example 15]" observation_type=Ki result="≤ 3 nM"

Query: Which measured Ki value corresponds to O=C(Nc1cccc(CNc2ncc(-c3cn[nH]c3)c3c2CCO3)c1)c1ncc(CN2CCCC2)s1 [Example 48] ?
Reply: ≤ 3 nM

Query: Which measured Ki value corresponds to O=C(NCc1cscn1)c1cccc(CNc2ncc(-c3cn[nH]c3)c3c2CCO3)c1 [Example 14] ?
Reply: ≤ 3 nM

Query: Which measured Ki value corresponds to CN(C)CCn1ncc2cc(C(=O)Nc3cccc(CNc4ncc(-c5cn[nH]c5)c5c4CCO5)c3)ccc21 [Example 43] ?
Reply: ≤ 3 nM

---

target: ROCK2 (Homo sapiens, UniProt O75116); test: In vitro inhibitory activity assay ROCK2 (Method A, ADP-Glo, 10 μM ATP); assay type: biochemical; details: ATP 10 μM, read-out: Method A ROCK 2 (Ki)
Consider the following compounds and their measured Ki readings.

Query: Which measured Ki value corresponds to O=C(Nc1nc2c(s1)CC(NC1COC1)CC2)c1cccc(CNc2ncc(-c3cn[nH]c3)c3c2CCO3)c1 (centres unmarked) ?
Reply: ≤ 3 nM

Query: Which measured Ki value corresponds to CN1CCc2nc(NC(=O)c3cccc(CNc4ncc(-c5cn[nH]c5)c5c4CCO5)c3)sc2C1 ?
Reply: ≤ 3 nM

Query: Which measured Ki value corresponds to CN1Cc2ccc(CNC(=O)c3cccc(CNc4ncc(-c5cn[nH]c5)c5c4CCO5)c3)cc2C1 ?
Reply: ≤ 3 nM

Query: Which measured Ki value corresponds to CN1CCc2cc(C(=O)Nc3cccc(CNc4ncc(-c5cn[nH]c5)c5c4CCO5)c3)cnc2C1 ?
Reply: ≤ 3 nM

Query: Which measured Ki value corresponds to CC(=O)Nc1cccc(C(C)Nc2ncc(-c3cn[nH]c3)c3c2CCO3)c1 (centres unmarked) ?
Reply: 3 to 30 nM

Query: Which measured Ki value corresponds to CN(C)Cc1cccc(CNC(=O)c2cccc(CNc3ncc(-c4cn[nH]c4)c4c3CCO4)c2)c1 ?
Reply: ≤ 3 nM

Query: Which measured Ki value corresponds to O=C(Cc1ccccc1)Nc1cccc(CNc2ncc(-c3cn[nH]c3)c3c2CCO3)c1 ?
Reply: 3 to 30 nM

Query: Which measured Ki value corresponds to O=C(Nc1cccc(CNc2ncc(-c3cn[nH]c3)c3c2CCO3)c1)c1ccc2c(c1)CCNC2 ?
Reply: ≤ 3 nM

---

biological target: ROCK1 (Homo sapiens, UniProt Q13464); test: In vitro inhibitory activity assay ROCK1 (Method A, ADP-Glo, 10 μM ATP); type: biochemical; conditions: ATP 10 μM, read-out: Method A ROCK 1 (Ki)
Sequence (Q13464 whole entry): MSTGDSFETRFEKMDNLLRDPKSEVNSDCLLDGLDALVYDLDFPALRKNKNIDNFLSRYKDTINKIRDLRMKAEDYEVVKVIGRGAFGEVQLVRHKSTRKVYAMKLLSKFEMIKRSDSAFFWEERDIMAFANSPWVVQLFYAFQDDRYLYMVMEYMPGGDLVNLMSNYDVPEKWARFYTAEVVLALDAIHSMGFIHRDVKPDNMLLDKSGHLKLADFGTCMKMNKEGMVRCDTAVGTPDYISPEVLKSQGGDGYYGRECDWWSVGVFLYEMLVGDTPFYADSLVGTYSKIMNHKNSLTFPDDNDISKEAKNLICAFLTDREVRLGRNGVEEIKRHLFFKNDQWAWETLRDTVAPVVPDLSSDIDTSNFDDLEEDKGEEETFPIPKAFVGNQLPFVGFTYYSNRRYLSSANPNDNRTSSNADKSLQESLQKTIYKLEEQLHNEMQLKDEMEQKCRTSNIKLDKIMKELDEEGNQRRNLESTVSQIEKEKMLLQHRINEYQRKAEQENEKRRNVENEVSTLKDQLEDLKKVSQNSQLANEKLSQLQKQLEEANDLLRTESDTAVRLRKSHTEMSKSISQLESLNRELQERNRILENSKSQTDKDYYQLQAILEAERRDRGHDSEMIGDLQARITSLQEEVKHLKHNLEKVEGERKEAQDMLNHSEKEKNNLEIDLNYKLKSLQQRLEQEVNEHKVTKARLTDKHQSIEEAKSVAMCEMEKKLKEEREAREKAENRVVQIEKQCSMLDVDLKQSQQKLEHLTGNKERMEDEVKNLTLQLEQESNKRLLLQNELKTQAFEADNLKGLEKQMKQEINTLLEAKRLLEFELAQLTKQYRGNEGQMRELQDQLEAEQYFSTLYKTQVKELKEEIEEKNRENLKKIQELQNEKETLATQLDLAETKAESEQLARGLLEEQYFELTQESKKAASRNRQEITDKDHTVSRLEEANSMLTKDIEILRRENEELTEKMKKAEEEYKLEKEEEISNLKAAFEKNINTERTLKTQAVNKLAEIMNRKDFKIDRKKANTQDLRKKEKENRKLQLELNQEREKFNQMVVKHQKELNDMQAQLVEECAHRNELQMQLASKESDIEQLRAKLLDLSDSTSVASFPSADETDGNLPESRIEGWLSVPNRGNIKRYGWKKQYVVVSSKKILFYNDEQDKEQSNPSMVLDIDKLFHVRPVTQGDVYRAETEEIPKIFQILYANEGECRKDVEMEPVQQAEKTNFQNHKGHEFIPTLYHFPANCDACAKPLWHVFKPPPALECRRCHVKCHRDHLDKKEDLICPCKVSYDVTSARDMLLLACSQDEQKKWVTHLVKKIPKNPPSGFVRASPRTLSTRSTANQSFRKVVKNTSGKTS
observation.type: Ki

compound="O=C(NC1CCN(CCc2ccccc2)CC1)c1cccc(CNc2ncc(-c3cn[nH]c3)c3c2CCO3)c1 [Example 26]" result="≤ 3 nM"
compound="CN(C)CCn1ncc2cc(C(=O)Nc3cccc(CNc4ncc(-c5cn[nH]c5)c5c4CCO5)c3)ccc21 [Example 43]" result="≤ 3 nM"
compound="CN1CCC(CCNC(=O)c2cccc(CNc3ncc(-c4cn[nH]c4)c4c3CCO4)c2)CC1 [Example 16]" result="≤ 3 nM"

Query: Which measured Ki value corresponds to CN1CCc2nc(CNC(=O)c3cccc(CNc4ncc(-c5cn[nH]c5)c5c4CCO5)c3)sc2C1 [Example 29] ?
Reply: 3 to 30 nM

Query: Which measured Ki value corresponds to Cn1nc(C(=O)Nc2cccc(CNc3ncc(-c4cn[nH]c4)c4c3CCO4)c2)c2ccccc21 [Example 41] ?
Reply: > 30 nM

Query: Which measured Ki value corresponds to CN(C)Cc1ccc(CNC(=O)c2cccc(CNc3ncc(-c4cn[nH]c4)c4c3CCO4)c2)cc1 [Example 24] ?
Reply: ≤ 3 nM

Query: Which measured Ki value corresponds to O=C(Nc1cccc(CNc2ncc(-c3cn[nH]c3)c3c2CCO3)c1)c1nc2c(s1)CN(CCO)CC2 [Example 38] ?
Reply: ≤ 3 nM

Query: Which measured Ki value corresponds to O=C(Nc1cccc(CNc2ncc(-c3cn[nH]c3)c3c2CCO3)c1)c1ccc2c(c1)CCNC2 [Example 40] ?
Reply: ≤ 3 nM

Query: Which measured Ki value corresponds to CN(C)Cc1cccc(NC(=O)c2cccc(CNc3ncc(-c4cn[nH]c4)c4c3CCO4)c2)c1 [Example 18] ?
Reply: ≤ 3 nM

Query: Which measured Ki value corresponds to Cn1ncc2c(C(=O)Nc3cccc(CNc4ncc(-c5cn[nH]c5)c5c4CCO5)c3)cccc21 [Example 42] ?
Reply: 3 to 30 nM

Query: Which measured Ki value corresponds to O=C(NC1CCN(Cc2ccccc2)CC1)c1cccc(CNc2ncc(-c3cn[nH]c3)c3c2CCO3)c1 [Example 54] ?
Reply: ≤ 3 nM

Query: Which measured Ki value corresponds to CN1CCc2cc(C(=O)Nc3cccc(CNc4ncc(-c5cn[nH]c5)c5c4CCO5)c3)ccc2C1 [Example 45] ?
Reply: ≤ 3 nM

Query: Which measured Ki value corresponds to CN(C)CCn1cc(NC(=O)c2cccc(CNc3ncc(-c4cn[nH]c4)c4c3CCO4)c2)cn1 [Example 27] ?
Reply: ≤ 3 nM

Query: Which measured Ki value corresponds to CN(C)C1CCc2nc(NC(=O)c3cccc(CNc4ncc(-c5cn[nH]c5)c5c4CCO5)c3)sc2C1 (stereo not drawn) [Example 33] ?
Reply: ≤ 3 nM

Query: Which measured Ki value corresponds to O=C(Nc1cccc(CNc2ncc(-c3cn[nH]c3)c3c2CCO3)c1)c1ccc2c(cnn2CCN2CCOCC2)c1 [Example 46] ?
Reply: ≤ 3 nM

---

Molecular target: ROCK1 (Homo sapiens, UniProt Q13464)
Test: In vitro inhibitory activity assay ROCK1 (Method B, ADP-Glo, 200 μM ATP)
Format: biochemical
Conditions: ATP 200 μM, read-out: Method B ROCK 1 (Ki)
Procedure: In Vitro Inhibitory Activity Assay Description ROCK1 and ROCK2 The effectiveness of compounds of the present invention to inhibit Rho kinase activity can be determined in a 10 μl assay containing 40 mM Tris pH7.5, 20 mM MgCl2 0.1 mg/mL BSA, 50 μM DTT and 2.5 μM peptide substrate (Myelin Basic Protein) using an ADP-Glo kit (Promega). Compounds were dissolved in DMSO such that the final concentration of DMSO was 1% in the assay. […] The luminescent signal was measured on a luminometer. […]
pKi: −log10 of the molar value.
observation.type: pKi

compound=CN(C)CCOc1ccc(NC(=O)c2cccc(CNc3ncc(-c4cn[nH]c4)c4c3CCO4)c2)nc1 subject_of_test="ROCK1 (Homo sapiens, UniProt Q13464)" observation_type=pKi result="≥ 8.52"
compound=CN1CCc2cc(C(=O)Nc3cccc(CNc4ncc(-c5cn[nH]c5)c5c4CCO5)c3)ccc2C1 subject_of_test="ROCK1 (Homo sapiens, UniProt Q13464)" observation_type=pKi result="≥ 8.52"
compound=O=C(Nc1ccncn1)c1cccc(CNc2ncc(-c3cn[nH]c3)c3c2CCO3)c1 subject_of_test="ROCK1 (Homo sapiens, UniProt Q13464)" observation_type=pKi result="≥ 8.52"
compound=O=C(NCc1cnon1)c1cccc(CNc2ncc(-c3cn[nH]c3)c3c2CCO3)c1 subject_of_test="ROCK1 (Homo sapiens, UniProt Q13464)" observation_type=pKi result="≥ 8.52"
compound=CN1CCn2nc(NC(=O)c3cccc(CNc4ncc(-c5cn[nH]c5)c5c4CCO5)c3)cc2C1 subject_of_test="ROCK1 (Homo sapiens, UniProt Q13464)" observation_type=pKi result="≥ 8.52"
compound=COc1ccc(NC(=O)c2cccc(CNc3ncc(-c4cn[nH]c4)c4c3CCO4)c2)nc1 subject_of_test="ROCK1 (Homo sapiens, UniProt Q13464)" observation_type=pKi result="≥ 8.52"

Query: Which measured pKi value corresponds to O=C(Nc1nc2c(s1)CC(NC1COC1)CC2)c1cccc(CNc2ncc(-c3cn[nH]c3)c3c2CCO3)c1 (stereo not drawn) ?
Reply: ≥ 8.52

Query: Which measured pKi value corresponds to CN(C)CCn1ncc2cc(C(=O)Nc3cccc(CNc4ncc(-c5cn[nH]c5)c5c4CCO5)c3)ccc21 ?
Reply: ≥ 8.52

Query: Which measured pKi value corresponds to O=C(NCc1cscn1)c1cccc(CNc2ncc(-c3cn[nH]c3)c3c2CCO3)c1 ?
Reply: ≥ 8.52

Query: Which measured pKi value corresponds to O=C(NCc1cncnc1)c1cccc(CNc2ncc(-c3cn[nH]c3)c3c2CCO3)c1 ?
Reply: 7.52 to 8.52

Query: Which measured pKi value corresponds to O=C(NC1CCN(C2CC2)CC1)c1cccc(CNc2ncc(-c3cn[nH]c3)c3c2CCO3)c1 ?
Reply: ≥ 8.52

Query: Which measured pKi value corresponds to O=C(NC1CC(F)(F)C1)c1cccc(CNc2ncc(-c3cn[nH]c3)c3c2CCO3)c1 ?
Reply: 7.52 to 8.52

Query: Which measured pKi value corresponds to CN(C)C1CCc2nc(NC(=O)c3cccc(CNc4ncc(-c5cn[nH]c5)c5c4CCO5)c3)sc2C1 (stereo not drawn) ?
Reply: ≥ 8.52

Query: Which measured pKi value corresponds to c1ccc(CNc2ncc(-c3cn[nH]c3)c3c2CCO3)cc1 [Example C, reference compound] ?
Reply: < 7.52
